- measurement_target: p-hTMD2-p-CFTR (pig CFTR with human CFTR's TMD2) (Sus scrofa, UniProt Q6PQZ2, A1172T/A789T/A900R/A913S/C878S/C883W/D1186N/D1223E/D816E/DEL1175-1175/F1181T/G899S/G926T/H1036Q/I1057V/I806L/K1013Q/K886G/K887N/K898H/L1018V/L1029M/L930M/L932F/M795V/N1178T/P890L/Q1176K/Q1198S/R1179K/R831K/R951H/S1010A/S1184Y/S783N/S889P/T1129R/T790A/T843A/V1006I/V1222T/V1228I/V798A/V838M/V854I/V870I/V983I)
- Construct: expressed in transfected cells; host or cells: CHO cells, pcDNA plasmid
- Sequence (Q6PQZ2 with tags, fused parts or gaps with the stated changes): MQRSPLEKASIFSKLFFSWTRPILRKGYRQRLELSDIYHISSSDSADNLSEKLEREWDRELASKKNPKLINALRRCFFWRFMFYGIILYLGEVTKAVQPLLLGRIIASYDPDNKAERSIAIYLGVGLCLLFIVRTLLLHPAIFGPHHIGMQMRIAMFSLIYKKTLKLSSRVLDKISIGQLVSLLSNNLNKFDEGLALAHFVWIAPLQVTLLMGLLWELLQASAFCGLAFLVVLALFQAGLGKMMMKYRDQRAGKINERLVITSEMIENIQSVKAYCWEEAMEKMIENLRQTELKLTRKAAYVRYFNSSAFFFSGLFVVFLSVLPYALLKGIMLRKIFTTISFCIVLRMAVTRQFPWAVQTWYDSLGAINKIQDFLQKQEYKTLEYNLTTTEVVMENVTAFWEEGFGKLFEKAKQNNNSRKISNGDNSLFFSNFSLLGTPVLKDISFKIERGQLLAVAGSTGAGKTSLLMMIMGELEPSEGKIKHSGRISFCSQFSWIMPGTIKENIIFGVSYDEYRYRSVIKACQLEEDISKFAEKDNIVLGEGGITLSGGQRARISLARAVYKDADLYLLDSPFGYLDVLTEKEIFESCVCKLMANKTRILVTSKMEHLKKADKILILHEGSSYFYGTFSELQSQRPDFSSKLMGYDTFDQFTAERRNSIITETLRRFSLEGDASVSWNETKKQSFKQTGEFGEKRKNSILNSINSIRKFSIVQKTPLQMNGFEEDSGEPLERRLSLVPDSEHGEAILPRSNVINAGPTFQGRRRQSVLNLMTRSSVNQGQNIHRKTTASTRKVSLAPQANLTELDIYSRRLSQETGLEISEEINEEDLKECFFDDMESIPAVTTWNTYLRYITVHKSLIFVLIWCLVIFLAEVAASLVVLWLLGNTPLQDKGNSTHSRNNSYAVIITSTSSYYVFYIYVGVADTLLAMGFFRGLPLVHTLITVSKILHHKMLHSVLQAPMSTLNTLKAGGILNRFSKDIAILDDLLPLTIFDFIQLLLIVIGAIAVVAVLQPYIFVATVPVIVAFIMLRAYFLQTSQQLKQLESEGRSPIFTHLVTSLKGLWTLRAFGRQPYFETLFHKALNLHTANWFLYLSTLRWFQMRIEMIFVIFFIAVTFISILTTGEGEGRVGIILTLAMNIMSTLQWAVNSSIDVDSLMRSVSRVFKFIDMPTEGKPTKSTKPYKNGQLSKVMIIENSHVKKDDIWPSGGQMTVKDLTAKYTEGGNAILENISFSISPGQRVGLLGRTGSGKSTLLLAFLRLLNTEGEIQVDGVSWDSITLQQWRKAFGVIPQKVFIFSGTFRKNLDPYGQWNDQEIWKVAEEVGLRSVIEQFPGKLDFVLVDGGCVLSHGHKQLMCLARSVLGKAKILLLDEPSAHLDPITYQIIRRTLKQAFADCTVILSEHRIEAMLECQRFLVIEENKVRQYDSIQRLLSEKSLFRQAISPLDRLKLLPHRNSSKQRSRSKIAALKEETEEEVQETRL
- protocol_summary: Inside-out patch-clamp inhibition of CFTR current by Inh-172
- Type: cell-based
- stated_conditions: pig CFTR with human TMD2; earlier manuscript version, peer review file
measured_parameter: IC50
Phrase the answer as number then unit, nothing more needed.

The compound identified as O=C(O)c1ccc(/C=C2\SC(=S)N(c3cccc(C(F)(F)F)c3)C2=O)cc1 [Inh-172, CFTRinh-172] registered its IC50 at 55 nM
